- TARGET ENTITY: BTK (Homo sapiens, UniProt Q06187)
- Sequence (Q06187 402-655 limits assumed): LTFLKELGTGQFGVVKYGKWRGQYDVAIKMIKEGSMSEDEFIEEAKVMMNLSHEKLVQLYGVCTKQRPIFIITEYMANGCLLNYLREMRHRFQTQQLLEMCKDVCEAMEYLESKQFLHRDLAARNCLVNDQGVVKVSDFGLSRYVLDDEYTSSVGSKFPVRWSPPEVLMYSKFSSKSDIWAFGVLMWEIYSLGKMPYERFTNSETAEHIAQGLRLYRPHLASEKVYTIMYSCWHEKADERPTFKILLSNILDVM
- ASSAY REMARKS: biochemical
- ASSAY CONDITIONS: read-out: BTK inhibition (%), 0.75 uM BTK, […] probe 3l, 15 min preincubation
READOUT KIND: inhibition at 10 µM

Recorded results for 5 compounds are shown here.
COc1ccc(COc2ccc(Cc3cnc(N)nc3N)cc2OC)cc1 [PCM-0095630] ... -7.6%
CC(C)=CCC[C@](C)(O[C@@H]1O[C@H](CO[C@@H]2OC[C@H](O)[C@H](O)[C@H]2O)[C@@H](O)[C@H](O)[C@H]1O)[C@H]1CC[C@]2(C)[C@@H]1[C@H](O)C[C@@H]1[C@@]3(C)CC[C@H](O[C@@H]4O[C@H](CO)[C@@H](O)[C@H](O)[C@H]4O[C@@H]4O[C@H](CO)[C@@H](O)[C@H](O)[C@H]4O)C(C)(C)[C@@H]3CC[C@]12C [PCM-0216375] ... 7.7%
O[C@@H](c1cc(C(F)(F)F)nc2c(C(F)(F)F)cccc12)[C@H]1CCCCN1 [PCM-0214801] ... -4.7%
COc1cc2c(=O)c3c(O)c([C@@H]4O[C@H](CO[C@@H]5OC[C@](O)(CO)[C@H]5O)[C@@H](O)[C@H](O)[C@H]4O)c(O)cc3oc2cc1O [PCM-0216492] ... -13.1%
Cn1nnnc1SCC1=C(C(=O)O)N2C(=O)[C@@H](NC(=O)[C@H](OC=O)c3ccccc3)[C@H]2SC1 [PCM-0214900] ... 8.6%

// next entry
Ask | For C[C@H]1CNCCCN1S(=O)(=O)c1cccc2cncc(F)c12 [PCM-0215585] , what is its reported inhibition at 10 µM?
Reply | -14.5%

Values compiled from paper PMC8041284.
